Data provenance: paper PMC12655819

- experimental details: Pharmacokinetics from plasma unbound levels in plasma ultrafiltrate (fMPA, fMPAG)
- Type: in vivo, human
- condition: human, plasma ultrafiltrate (unbound level in EDTA plasma); free level in plasma ultrafiltrate; pediatric renal transplant recipients (n = 20) on MMF (CellCept), steady state; 0–4 h post-dose; mean (range); read-out: Cmax
endpoint: Cmax

Entry under test: COc1c(C)c2c(c(O)c1C/C=C(\C)CCC(=O)O)C(=O)OC2 [MPA, Mycophenolic acid] . Its Cmax was 160 ng/mL

----------
- experimental details: Stability of analytes in dried saliva Mitra VAMS tips
- Type: physicochemical
- condition: dried saliva on Mitra VAMS tips, LQC; room temperature (light-protected with desiccant); 1 week; n=6
endpoint: recovery at 1 week
Kindly report the value followed by its unit.

Entry under test: COc1c(C)c2c(c(O)c1C/C=C(\C)CCC(=O)O)C(=O)OC2 . Its recovery at 1 week was 98%

----------
- experimental details: Pharmacokinetics from plasma unbound levels in plasma ultrafiltrate (fMPA, fMPAG)
- Format: in vivo, human
- condition: human, plasma ultrafiltrate (unbound level in EDTA plasma); free level in plasma ultrafiltrate; 0.5 h post-dose; n = 20; mean ± SD; read-out: C0.5 concentration
endpoint: concentration at 0.5 h (ng/mL)
Dear colleague, please return just the value in ng/mL, with no unit written.

Entry under test: COc1c(C)c2c(c(O)c1C/C=C(\C)CCC(=O)O)C(=O)OC2 [MPA, Mycophenolic acid] . Its concentration at 0.5 h was 104

----------
- experimental details: Pharmacokinetics from plasma unbound levels in plasma ultrafiltrate (fMPA, fMPAG)
- Type: in vivo, human
- condition: human, plasma ultrafiltrate (unbound level in EDTA plasma); free level in plasma ultrafiltrate; 4 h post-dose; n = 20; mean ± SD; read-out: C4 concentration
endpoint: concentration at 4 h (ng/mL)
Dear colleague, please return just the value in ng/mL, with no unit written.

Entry under test: COc1c(C)c2c(c(O)c1C/C=C(\C)CCC(=O)O)C(=O)OC2 . Its concentration at 4 h was 31

----------
- experimental details: Pharmacokinetics from liquid (wet) saliva collected with Salivette (sMPA, sMPAG)
- Type: in vivo, human
- condition: human; wet saliva (unstimulated, Salivette); pediatric renal transplant recipients (n = 20) on MMF; 0–4 h post-dose; mean (range); read-out: Cmax
- Experimental: The AUC0–4, Tmax, and Cmax parameters were calculated using the R (version 4.5.1) package software (R Core Team, 2025), supported by RStudio (version 2025.05.1+513) from Posit PBC software (Boston, MA, USA). […] The vMPA and vMPAG capillary blood levels were corrected using formulas validated in our department (partially published by Kocur et al.) and expressed as estimated capillary plasma concentrations. […]
endpoint: Cmax
Kindly report the value followed by its unit.

Entry under test: COc1c(C)c2c(c(O)c1C/C=C(\C)CCC(=O)O)C(=O)OC2 . Its Cmax was 83.5 ng/mL

----------
- experimental details: Pharmacokinetics from plasma unbound levels in plasma ultrafiltrate (fMPA, fMPAG)
- Type: in vivo, human
- condition: free level in plasma ultrafiltrate; pediatric renal transplant recipients (n = 20) on MMF; mean (range)
endpoint: AUC(0–4) (ng·h/mL)
Dear colleague, please return just the value in ng·h/mL, with no unit written.

Entry under test: COc1c(C)c2c(c(O[C@@H]3O[C@H](C(=O)O)[C@@H](O)[C@H](O)[C@H]3O)c1C/C=C(\C)CCC(=O)O)C(=O)OC2 [MPAG, mycophenolic acid glucuronide] . Its AUC(0–4) was 25200
